Test system: control Gram-negative E. coli 25922 strain
assayExplanation: Antibacterial activity, microbroth dilution MIC, E. coli 25922
Assay type: cell-based, Escherichia coli
experimentalParameters: Escherichia coli; E. coli 25922, microbroth dilution; read-out: MIC, 25922
// values below are reported MIC

Below are worked cases with known answers.
Bench note: what MIC did `CCc1cc(C(=O)O)c(=O)[nH]c1-c1cnc(N(C)C)nc1` show?
12.5 to 150 µg/mL

Also `CCc1c(-c2ccc(N3CCC4(CCNCC4)C3)cc2)[nH]c(=O)c(C(=O)O)c1O.Cl` ?
3.5 to 12.5 µg/mL

Here is the next compound: `CCc1cc(C(=O)O)c(=O)[nH]c1-c1ccc(N(C)C)c(F)c1`
12.5 to 150 µg/mL

Then what about the compound `CCc1cc(C(=O)O)c(=O)[nH]c1-c1ccc(N2C[C@H]3CC[C@H](N)[C@H]3C2)cc1.O=C(O)C(F)(F)F` ?
12.5 to 150 µg/mL

More entries:
Returns the measured MIC for the input compound. Input: CCc1cc(C(=O)O)c(=O)[nH]c1-c1ccc(N2CCC(c3ccccn3)C2)cc1 (centres unmarked)
1 to 3.5 µg/mL

Record: CCc1cc(C(=O)O)c(=O)[nH]c1-c1ccc(N2CCC(CNCc3ccc(Cl)cc3)C2)cc1 (centres unmarked)
< 1 µg/mL
